FYI, the data here is from ChEMBL document CHEMBL3098076.

- PROCEDURE TEXT: Cytotoxicity against African green monkey Vero cells after 72 hrs by MTT assay
- Type: cell-based
- CONDITION INFO: chlorocebus sabaeus, Vero cells
Recorded CC50 at 72 h for the following molecules
Hi! Could you send only the number? It should be in µM, unit omitted.

The molecule listed as `C=CCn1c2ccccc2c2nnc(SCCNc3ccnc4cc(Cl)ccc34)nc21` has a reported CC50 at 72 h of 10.5

The molecule listed as `CCn1c2ccccc2c2nnc(SCCNc3ccnc4cc(Cl)ccc34)nc21` has a reported CC50 at 72 h of 61.5

The molecule listed as `CC(C)n1c2ccccc2c2nnc(SCCNc3ccnc4cc(Cl)ccc34)nc21` has a reported CC50 at 72 h of 19.4

---

- PROCEDURE TEXT: Cytotoxicity against African green monkey Vero cells after 72 hrs by MTT assay
- Type: cell-based
- CONDITION INFO: chlorocebus sabaeus, Vero cells
READOUT LABEL: CC50 at 72 h (µM)
Hi! Could you send only the number? It should be in µM, unit omitted.

Check out these entries, answers already filled in.
> print(dat)
                                   molecule  measured.value
1  Cn1c2nc(SCCNc3ccnc4cc(Cl)ccc34)nnc2c2cccc(C(F)(F)F)c21            39.3
2  Clc1ccc2c(NCCSc3nnc4c(n3)[nH]c3ccccc34)ccnc2c1            74.3
3  CCCn1c2ccccc2c2nnc(SCCNc3ccnc4cc(Cl)ccc34)nc21            41.7

Please look at the following molecule next.
The molecule listed as `CC(C)Cn1c2ccccc2c2nnc(SCCNc3ccnc4cc(Cl)ccc34)nc21` has a reported CC50 at 72 h of 28.6

---

- Test system: Leishmania donovani
- PROCEDURE TEXT: Antileishmanial activity against intracellular amastigote stage of Leishmania donovani MHOM/IN/80/Dd8 expressing luciferase firefly reporter gene infected in mouse J774A1 cells after 72 hrs by luminescence assay
- Type: functional, organism-based, J774.A1
- CONDITION INFO: Leishmania donovani, MHOM/IN/80/Dd8, J774.A1, 72 h; read-out: IC50
READOUT LABEL: IC50 (µM)
Hi! Could you send only the number? It should be in µM, unit omitted.

Check out these entries, answers already filled in.
> print(dat)
                                   molecule  readout.label  measured.value
1  CC(C)Cn1c2ccccc2c2nnc(SCCNc3ccnc4cc(Cl)ccc34)nc21           IC50            5.69
2  Clc1ccc2c(NCCSc3nnc4c(n3)[nH]c3ccccc34)ccnc2c1           IC50            1.11
3  CCCCn1c2ccccc2c2nnc(SCCNc3ccnc4cc(Cl)ccc34)nc21           IC50            29.5
4  CC(C)n1c2ccccc2c2nnc(SCCNc3ccnc4cc(Cl)ccc34)nc21           IC50            2.88
5  CCCn1c2ccccc2c2nnc(SCCNc3ccnc4cc(Cl)ccc34)nc21           IC50            14.7
6  CCn1c2ccccc2c2nnc(SCCNc3ccnc4cc(Cl)ccc34)nc21           IC50             7.1

The compound listed as `Cn1c2ccccc2c2nnc(SCCNc3ccnc4cc(Cl)ccc34)nc21` has a reported IC50 of 0.36

The compound listed as `Cn1c2nc(SCCNc3ccnc4cc(Cl)ccc34)nnc2c2cccc(C(F)(F)F)c21` has a reported IC50 of 6.46

The compound listed as `C=CCn1c2ccccc2c2nnc(SCCNc3ccnc4cc(Cl)ccc34)nc21` has a reported IC50 of 10.1

---

- Test system: Vero
- PROCEDURE TEXT: Cytotoxicity against African green monkey Vero cells after 72 hrs by MTT assay
- Type: cell-based
- CONDITION INFO: chlorocebus sabaeus, vero, 72 h
READOUT LABEL: CC50

The substance listed as SODIUM ANTIMONY GLUCONATE has a reported CC50 of > 400 µM
